System: Beta-1 adrenergic receptor (Rattus norvegicus) | Read-out: Ki
Sequence (P18090 whole entry): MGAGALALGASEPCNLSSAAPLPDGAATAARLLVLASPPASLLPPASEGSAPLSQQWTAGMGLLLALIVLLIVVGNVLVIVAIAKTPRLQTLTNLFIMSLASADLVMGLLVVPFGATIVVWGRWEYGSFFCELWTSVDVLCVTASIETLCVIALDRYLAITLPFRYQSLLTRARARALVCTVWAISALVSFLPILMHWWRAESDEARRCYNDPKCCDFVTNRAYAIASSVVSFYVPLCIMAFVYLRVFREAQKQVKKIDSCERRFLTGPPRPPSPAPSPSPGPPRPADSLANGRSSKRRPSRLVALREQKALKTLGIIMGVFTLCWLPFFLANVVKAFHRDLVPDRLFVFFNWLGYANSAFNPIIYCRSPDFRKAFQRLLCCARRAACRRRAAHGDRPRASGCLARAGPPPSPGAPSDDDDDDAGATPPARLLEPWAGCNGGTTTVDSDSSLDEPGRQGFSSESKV
Measured Endpoint: Ki

{"Compound": "CNCC(O)c1cc(O)c(O)cc1F (centres undefined)", "Reported Value": "63 µM"}
{"Compound": "CNC[C@H](O)c1ccc(O)c(O)c1 [EPINEPHRINE]", "Reported Value": "1.2 µM"}
{"Compound": "CNCC(O)c1c(F)ccc(O)c1F (centres undefined)", "Reported Value": "81 µM"}
{"Compound": "CNCC(O)c1cc(O)ccc1F (centres undefined)", "Reported Value": "180 µM"}
{"Compound": "CNCC(O)c1cc(F)c(O)c(O)c1F (centres undefined)", "Reported Value": "2.3 µM"}
{"Compound": "CNCC(O)c1cccc(O)c1F (centres undefined)", "Reported Value": "4 µM"}
{"Compound": "NCC(O)c1c(F)cc(O)c(O)c1F (centres undefined)", "Reported Value": "> 50 µM"}
{"Compound": "NCC(O)c1cc(F)c(O)c(O)c1F (centres undefined)", "Reported Value": "5.6 µM"}
{"Compound": "NCC(O)c1cc(O)c(O)c(F)c1 (centres undefined)", "Reported Value": "1.5 µM"}

---

pKi: −log10 of the molar value.
System: Beta-2 adrenergic receptor (Rattus norvegicus, UniProt P10608) | Read-out: pKi
Sequence (P10608 whole entry): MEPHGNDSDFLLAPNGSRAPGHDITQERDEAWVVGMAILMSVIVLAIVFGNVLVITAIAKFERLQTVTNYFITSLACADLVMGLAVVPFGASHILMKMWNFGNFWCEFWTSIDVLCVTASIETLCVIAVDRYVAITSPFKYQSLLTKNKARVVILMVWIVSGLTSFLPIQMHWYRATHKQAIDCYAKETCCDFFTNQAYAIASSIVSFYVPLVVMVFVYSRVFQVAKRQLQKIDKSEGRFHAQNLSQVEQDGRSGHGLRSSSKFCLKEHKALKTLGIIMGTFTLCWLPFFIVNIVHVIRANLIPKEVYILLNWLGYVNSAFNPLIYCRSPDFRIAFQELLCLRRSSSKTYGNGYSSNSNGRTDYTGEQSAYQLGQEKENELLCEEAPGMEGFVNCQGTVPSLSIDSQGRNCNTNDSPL
Measured Endpoint: pKi

{"Molecule": "CNCC(O)c1cc(F)c(O)c(O)c1F (configuration not stated)", "Reported Value": 6.15}
{"Molecule": "NCC(O)c1cc(O)c(O)c(F)c1 (configuration not stated)", "Reported Value": 5.26}

---

Measured On: Adrenergic receptor alpha-2 (Rattus norvegicus, UniProt P22086+P19328+P22909)
Test Description: Displacement of [3H]clonidine from adrenergic alpha 2 receptor of rat cerebral cortical membranes
Type: cell membranes, Membrane
So basically every entry gets a class from its Ki, ranges being low bracket (below 200 nM), middle bracket (200 nM to below 1000 nM), high bracket (1000 nM or more)

{"Molecule": "CNCC(O)c1cc(O)ccc1F (stereo not given)", "Group": "middle bracket"}
{"Molecule": "NCC(O)c1c(F)cc(O)c(O)c1F (stereo not given)", "Group": "middle bracket"}
{"Molecule": "CNCC(O)c1cc(F)c(O)c(O)c1F (stereo not given)", "Group": "high bracket"}
{"Molecule": "CNCC(O)c1cc(O)c(O)cc1F (stereo not given)", "Group": "low bracket"}
{"Molecule": "NCC(O)c1cc(O)c(O)c(F)c1 (stereo not given)", "Group": "low bracket"}
{"Molecule": "CNCC(O)c1c(F)ccc(O)c1F (stereo not given)", "Group": "middle bracket"}
{"Molecule": "CNCC(O)c1cccc(O)c1F (stereo not given)", "Group": "high bracket"}
{"Molecule": "NCC(O)c1cc(F)c(O)c(O)c1F (stereo not given)", "Group": "high bracket"}
{"Molecule": "NCC(O)c1ccc(O)c(O)c1F (stereo not given)", "Group": "high bracket"}
{"Molecule": "CNCC(O)c1ccc(O)c(O)c1F (stereo not given)", "Group": "low bracket"}

---

Measured On: Adrenergic receptor alpha-1 (Rattus norvegicus, UniProt P15823+P23944+P43140)
Test Description: Displacement of [3H]WB-4101 from adrenergic alpha 1 receptor of rat cerebral cortical membranes
Type: cell membranes, Membrane
Note to self: Ki under 20 µM means Satisfied, ties and anything higher get Not satisfied.

{"Compound": "NCC(O)c1cc(F)c(O)c(O)c1F (configuration not stated)", "Group": "Not satisfied"}
{"Compound": "CNCC(O)c1c(F)ccc(O)c1F (configuration not stated)", "Group": "Satisfied"}
{"Compound": "CNCC(O)c1cc(F)c(O)c(O)c1F (configuration not stated)", "Group": "Not satisfied"}
{"Compound": "NCC(O)c1cc(O)c(O)c(F)c1 (configuration not stated)", "Group": "Satisfied"}
{"Compound": "NCC(O)c1ccc(O)c(O)c1F (configuration not stated)", "Group": "Not satisfied"}
{"Compound": "CNCC(O)c1cccc(O)c1F (configuration not stated)", "Group": "Satisfied"}
{"Compound": "CNCC(O)c1cc(O)ccc1F (configuration not stated)", "Group": "Satisfied"}
